Test system: human red blood cells (hRBCs)
Assay: Hemolytic activity determination
Type: cell-based
Details: peptide 25 μg ml^–1; hRBCs in 0.9% sodium chloride, 37°C, 1 h, OD540, 1% Triton X-100 = 100%; three independent experiments
Where a SMILES comes first, the peptide text is derived from it.
assay.endpoint: percent hRBC hemolysis (%)

>>> measured_result("CC[C@H](C)[C@H](NC(=O)[C@H](C)NC(=O)[C@H](CCCCN)NC(=O)[C@@H](NC(=O)[C@@H](N)Cc1ccccc1)[C@@H](C)CC)C(=O)N[C@@H](C)C(=O)N[C@@H](CCCNC(=N)N)C(=O)N[C@@H](CC(C)C)C(=O)N[C@@H](CC(C)C)C(=O)N[C@@H](CCCNC(=N)N)C(=O)N[C@@H](CCCCN)C(=O)N[C@H](C(=O)N[C@@H](Cc1ccccc1)C(N)=O)[C@@H](C)CC [Kn2(G3K_S10R)] (H-FIKAIARLLRKIF-NH2)")
77.5
>>> measured_result("CC[C@H](C)[C@H](NC(=O)[C@H](C)NC(=O)CNC(=O)[C@@H](NC(=O)[C@@H](N)Cc1ccccc1)[C@@H](C)CC)C(=O)N[C@@H](C)C(=O)N[C@@H](CCCNC(=N)N)C(=O)N[C@@H](CC(C)C)C(=O)N[C@@H](CC(C)C)C(=O)N[C@@H](CO)C(=O)N[C@@H](CCCCN)C(=O)N[C@H](C(=O)N[C@@H](Cc1ccccc1)C(N)=O)[C@@H](C)CC [BmKn2] (H-FIGAIARLLSKIF-NH2)")
91.8
>>> measured_result("CC[C@H](C)[C@H](NC(=O)[C@H](C)NC(=O)[C@H](CCCCN)NC(=O)[C@@H](NC(=O)[C@@H](N)Cc1ccccc1)[C@@H](C)CC)C(=O)N[C@@H](C)C(=O)N[C@@H](CCCNC(=N)N)C(=O)N[C@@H](CC(C)C)C(=O)N[C@@H](CC(C)C)C(=O)N[C@@H](CO)C(=O)N[C@@H](CCCCN)C(=O)N[C@H](C(=O)N[C@@H](Cc1ccccc1)C(N)=O)[C@@H](C)CC [Kn2(G3K)] (H-FIKAIARLLSKIF-NH2)")
69.0
